Recorded IC50 by entry
# Tested on: NCI-H358
# Protocol Details: Cell proliferation assay, 3D, CellTiter-Glo 3D
# Format: cell-based, human
# Condition Info: Homo sapiens, 72 h; NCI-H358 (KRAS G12C), 3D ultra-low attachment, 3 days; read-out: anit-prolif. H358 IC50
Measured Property: IC50

{"Cpd Smiles": "Cc1nc(N[C@H](C)c2cccc(C(F)F)c2F)c2cn(N3CCOCC3)c(=O)c(-c3ccc(C#N)c(F)c3)c2n1", "Reading": "100 to 500 nM"}
{"Cpd Smiles": "Cc1nc(N[C@H](C)c2cccc(C(F)F)c2F)c2cn(N3CCOCC3)c(=O)c(-c3cnc(C#N)c(F)c3)c2n1", "Reading": "≤ 100 nM"}
{"Cpd Smiles": "Cc1nc(N[C@H](C)c2cccc(C(F)F)c2F)c2cn(N3CCOCC3)c(=O)c(-c3ccc(C#N)nc3)c2n1", "Reading": "≤ 100 nM"}
{"Cpd Smiles": "Cc1nc(N[C@H](C)c2cccc(C(F)F)c2F)c2cn(N3CCCC3=O)c(=O)cc2n1", "Reading": "500 to 1000 nM"}
{"Cpd Smiles": "Cc1nc(N[C@H](C)c2cccc(C(F)F)c2F)c2cn(N3CCOCC3)c(=O)c(F)c2n1", "Reading": "≤ 100 nM"}
{"Cpd Smiles": "Cc1nc(N[C@H](C)c2cccc(C(F)(F)CO)c2)c2cn(N3CCOCC3)c(=O)c(F)c2n1", "Reading": "≤ 100 nM"}
{"Cpd Smiles": "Cc1nc(N[C@H](C)c2cccc(C(F)F)c2F)c2cn(N3CCOCC3)c(=O)c(-c3ccc(C#N)cc3)c2n1", "Reading": "≤ 100 nM"}

###

# System: NCI-H358
# Protocol Details: Cell proliferation assay, 3D, CellTiter-Glo 3D
# Format: cell-based, human
# Condition Info: Homo sapiens, 72 h; NCI-H358 (KRAS G12C), 3D ultra-low attachment, 3 days; read-out: anit-prolif. H358 IC50
# Experimental: b. Cell Proliferation Assay Low IC50 values are indicative of high potency of the compounds in this assay setting. […] NCI-H358 cells (ATCC, Cat. CRL-5807) are grown in cell culture flasks using RPMI medium supplemented with 10% FBS. […] Cells are trypsinized, counted and plated in 96-well ultra-low adhesion plates for 3D cell viability determination. […] Luminescent intensity is determined using Envision (PerkinElmer). Data is analyzed and IC50 values are calculated using GraphPad Prism.
Recorded IC50 by entry

{"Molecule": "Cc1nc(N[C@H](C)c2cccc(C(F)F)c2F)c2cn(N3CCOCC3)c(=O)c(-c3cc(C#N)ccc3F)c2n1 [Example 65]", "IC50": "100 to 500 nM"}
{"Molecule": "CCC(Nc1nc(C)nc2cc(=O)n(N3CCOCC3)cc12)c1cccc(C(F)(F)F)c1 (stereo not drawn) [Example 24]", "IC50": "100 to 500 nM"}
{"Molecule": "Cc1nc(N[C@H](C)c2cccc(C(F)F)c2F)c2cn(N3CCOCC3)c(=O)c(-c3ccc(F)c(C#N)c3)c2n1 [Example 63]", "IC50": "500 to 1000 nM"}
{"Molecule": "Cc1nc(N[C@H](C)c2cccc(C(F)F)c2F)c2cn(N3CCOCC3)c(=O)c(-c3cn(CC(F)F)cn3)c2n1 [Example 69]", "IC50": "≤ 100 nM"}
{"Molecule": "Cc1nc(N[C@H](C)c2cccc(C(F)F)c2F)c2cn(N3CCOCC3)c(=O)c(-c3ccnc(C#N)c3)c2n1 [Example 68]", "IC50": "100 to 500 nM"}
{"Molecule": "Cc1nc(N[C@H](C)c2cccc(C(F)F)c2F)c2cn(N3CCCCC3)c(=O)cc2n1 [Example 2]", "IC50": "≤ 100 nM"}
{"Molecule": "Cc1nc(N[C@H](C)c2cccc(C(F)F)c2F)c2cn(N3CCOCC3)c(=O)c(-c3ccc4nccn4c3)c2n1 [Example 73]", "IC50": "≤ 100 nM"}
{"Molecule": "Cc1nc(N[C@H](C)c2cc(N)cc(C(F)(F)F)c2)c2cn(N3CCOCC3)c(=O)cc2n1 [Example 16]", "IC50": "100 to 500 nM"}
{"Molecule": "Cc1nc(N[C@H](C)c2cccc(C(F)F)c2F)c2cn(N3CCN(c4ccc(C#N)cn4)CC3)c(=O)cc2n1 [Example 15]", "IC50": "≤ 100 nM"}
{"Molecule": "Cc1nc(N[C@H](C)c2cccc(C(F)F)c2F)c2cn(N3CCOCC3)c(=O)c(-c3ccc(S(C)(=O)=O)cc3)c2n1 [Example 43]", "IC50": "≤ 100 nM"}
{"Molecule": "C=C(C)c1c(=O)n(N2CCOCC2)cc2c(N[C@H](C)c3cccc(C(F)F)c3F)nc(C)nc12 [Example 56]", "IC50": "100 to 500 nM"}
{"Molecule": "Cc1nc(N[C@H](C)c2cccc(C(F)F)c2F)c2cn(N3CCOCC3)c(=O)c(-c3ccc(C(F)(F)F)nc3)c2n1 [Example 60]", "IC50": "≤ 100 nM"}
{"Molecule": "Cc1nc(N[C@H](C)c2cccc(C(F)F)c2F)c2cn(N3CCOCC3)c(=O)c(C#N)c2n1 [Example 41]", "IC50": "100 to 500 nM"}
{"Molecule": "Cc1nc(N[C@H](C)c2cccc(C(F)F)c2F)c2cn(N3CCC(O)CC3)c(=O)cc2n1 [Example 37]", "IC50": "100 to 500 nM"}
{"Molecule": "Cc1nc(N[C@H](C)c2cccc(C(F)F)c2F)c2cn(N3CCOCC3)c(=O)c(-c3cc(F)cc(C#N)c3)c2n1 [Example 64]", "IC50": "500 to 1000 nM"}
